# ASSAYED_SYSTEM: cathepsin K (Homo sapiens, UniProt P43235)
# Sequence (P43235 115-329): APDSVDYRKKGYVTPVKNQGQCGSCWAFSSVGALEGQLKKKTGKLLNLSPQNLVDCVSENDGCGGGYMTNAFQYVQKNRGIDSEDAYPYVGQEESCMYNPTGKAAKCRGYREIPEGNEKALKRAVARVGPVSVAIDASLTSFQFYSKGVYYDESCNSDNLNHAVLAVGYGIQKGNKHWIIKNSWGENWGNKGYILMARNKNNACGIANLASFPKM
# TEST_NAME: Determination of cathepsin K proteolytic catalytic activity (Ki, fluorogenic peptide substrate)
# MEASUREMENT_CONTEXT: human recombinant enzyme

COMPOUND	Ki [nM]
CCC1OCC(=O)C1NC(=O)C(CC(C)C)NC(=O)c1ccc(-c2csc(N3CCN(C)CC3)n2)cc1 (stereo not shown) [Example 3]	1
